Sourced from patent US11479556B1

For each of the compounds below, state its DC50.
# TESTED_ON: BTK (Homo sapiens, UniProt Q06187)
# Construct: endogenous in cells; host or cells: TMD8 cells
# Sequence (Q06187 whole entry): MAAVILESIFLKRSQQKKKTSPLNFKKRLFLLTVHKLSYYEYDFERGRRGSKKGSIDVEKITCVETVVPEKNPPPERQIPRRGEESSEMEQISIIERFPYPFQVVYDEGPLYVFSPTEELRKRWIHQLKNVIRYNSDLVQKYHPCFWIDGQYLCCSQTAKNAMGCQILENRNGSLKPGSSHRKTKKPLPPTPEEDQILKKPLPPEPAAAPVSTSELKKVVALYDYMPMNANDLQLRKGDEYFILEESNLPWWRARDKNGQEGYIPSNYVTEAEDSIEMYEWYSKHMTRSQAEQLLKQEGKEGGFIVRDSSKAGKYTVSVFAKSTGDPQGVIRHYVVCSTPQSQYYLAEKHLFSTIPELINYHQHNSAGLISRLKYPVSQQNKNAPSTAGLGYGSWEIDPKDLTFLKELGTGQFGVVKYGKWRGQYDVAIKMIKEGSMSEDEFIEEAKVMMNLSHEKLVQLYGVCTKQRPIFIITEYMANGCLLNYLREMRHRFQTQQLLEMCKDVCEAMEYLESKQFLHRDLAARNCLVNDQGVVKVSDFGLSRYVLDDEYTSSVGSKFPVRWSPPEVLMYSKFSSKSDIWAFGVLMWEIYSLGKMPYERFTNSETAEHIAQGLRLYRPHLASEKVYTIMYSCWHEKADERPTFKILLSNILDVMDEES
# PROTOCOL_SUMMARY: Cellular BTK HTRF assay (BTK degradation) in TMD8 cells
# Type: cell-based
# ASSAY_SETUP: four hours incubation, Total-BTK HTRF relative to DMSO-treated cells

INPUT: Could you tell me which DC50 is on file for CN1CCN([C@H]2CCCN(c3cnc(C(N)=O)c(Nc4ccc5c(c4)CCN(CC4CN(c6ccc7c(c6)C(=O)N(C6CCC(=O)NC6=O)C7=O)C4)C5)n3)C2)C1=O (some centres unmarked) ?
OUTPUT: 5 to 15 nM

INPUT: Could you tell me which DC50 is on file for CN1CCN([C@@H]2CCCN(c3cnc(C(N)=O)c(Nc4ccc(N5CCN(C(=O)CCOCCNc6cccc7c6C(=O)N(C6CCC(=O)NC6=O)C7=O)CC5)cc4)n3)C2)C1=O (some centres unmarked) ?
OUTPUT: 5 to 15 nM

INPUT: Could you tell me which DC50 is on file for Cn1cc(Nc2nc(N3CCC[C@H](N4CC5(CN(CC6CCN(c7ccc(C(=O)NC8CCC(=O)NC8=O)nc7)CC6)C5)OC4=O)C3)cnc2C(N)=O)cn1 (some centres unmarked) ?
OUTPUT: < 5 nM

INPUT: Could you tell me which DC50 is on file for NC(=O)c1ncc(N2CCC[C@@H](CO)C2)nc1Nc1ccc(C2CCN(C[C@H]3CCN(c4ccc5c(c4)C(=O)N(C4CCC(=O)NC4=O)C5=O)C3)CC2)cc1 (some centres unmarked) ?
OUTPUT: < 5 nM

INPUT: Could you tell me which DC50 is on file for CN1CCN([C@@H]2CCCN(c3cnc(C(N)=O)c(Nc4ccc(N5CCN(CC6CN(c7ccc8c(c7)C(=O)N(C7CCC(=O)NC7=O)C8=O)C6)CC5)cc4)n3)C2)C1=O (some centres unmarked) [Compound 82] ?
OUTPUT: < 5 nM

====

# TESTED_ON: Aiolos (Homo sapiens, UniProt Q96SW2+Q9UKT9)
# Construct: Frozen human peripheral blood mononuclear cells (PBMCs) were thawed and treated with DMSO or compound for 24 hours; endogenous in cells; host or cells: human PBMCs (T cells gated CD3+CD20-)
# Sequence (Q9UKT9 whole entry): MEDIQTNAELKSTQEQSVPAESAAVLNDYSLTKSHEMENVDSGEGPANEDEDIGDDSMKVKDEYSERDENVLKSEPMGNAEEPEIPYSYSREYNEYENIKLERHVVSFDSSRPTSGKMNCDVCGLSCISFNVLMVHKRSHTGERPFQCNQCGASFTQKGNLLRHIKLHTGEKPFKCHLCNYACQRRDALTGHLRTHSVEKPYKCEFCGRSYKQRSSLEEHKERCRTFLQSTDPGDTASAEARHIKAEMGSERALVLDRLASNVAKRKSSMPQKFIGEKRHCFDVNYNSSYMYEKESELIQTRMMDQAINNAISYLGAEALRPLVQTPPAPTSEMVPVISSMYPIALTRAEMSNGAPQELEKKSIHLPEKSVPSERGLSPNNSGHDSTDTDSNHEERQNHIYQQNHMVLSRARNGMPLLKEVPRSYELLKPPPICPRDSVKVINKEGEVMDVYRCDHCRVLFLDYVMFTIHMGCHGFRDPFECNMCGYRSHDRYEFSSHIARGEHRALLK
# Sequence (Q96SW2 whole entry): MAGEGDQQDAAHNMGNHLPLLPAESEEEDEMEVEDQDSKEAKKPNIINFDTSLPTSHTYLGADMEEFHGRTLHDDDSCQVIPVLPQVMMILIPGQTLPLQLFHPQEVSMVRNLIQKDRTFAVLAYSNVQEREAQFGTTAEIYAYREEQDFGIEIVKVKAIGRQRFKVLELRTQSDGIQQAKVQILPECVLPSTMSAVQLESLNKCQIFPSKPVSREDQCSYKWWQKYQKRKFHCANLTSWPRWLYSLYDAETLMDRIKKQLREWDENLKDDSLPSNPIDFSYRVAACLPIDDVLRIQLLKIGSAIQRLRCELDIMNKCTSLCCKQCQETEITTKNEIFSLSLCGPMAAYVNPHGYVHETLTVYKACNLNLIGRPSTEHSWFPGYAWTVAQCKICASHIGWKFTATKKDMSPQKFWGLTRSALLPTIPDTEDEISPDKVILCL
# Sequence (Q16531 whole entry partner): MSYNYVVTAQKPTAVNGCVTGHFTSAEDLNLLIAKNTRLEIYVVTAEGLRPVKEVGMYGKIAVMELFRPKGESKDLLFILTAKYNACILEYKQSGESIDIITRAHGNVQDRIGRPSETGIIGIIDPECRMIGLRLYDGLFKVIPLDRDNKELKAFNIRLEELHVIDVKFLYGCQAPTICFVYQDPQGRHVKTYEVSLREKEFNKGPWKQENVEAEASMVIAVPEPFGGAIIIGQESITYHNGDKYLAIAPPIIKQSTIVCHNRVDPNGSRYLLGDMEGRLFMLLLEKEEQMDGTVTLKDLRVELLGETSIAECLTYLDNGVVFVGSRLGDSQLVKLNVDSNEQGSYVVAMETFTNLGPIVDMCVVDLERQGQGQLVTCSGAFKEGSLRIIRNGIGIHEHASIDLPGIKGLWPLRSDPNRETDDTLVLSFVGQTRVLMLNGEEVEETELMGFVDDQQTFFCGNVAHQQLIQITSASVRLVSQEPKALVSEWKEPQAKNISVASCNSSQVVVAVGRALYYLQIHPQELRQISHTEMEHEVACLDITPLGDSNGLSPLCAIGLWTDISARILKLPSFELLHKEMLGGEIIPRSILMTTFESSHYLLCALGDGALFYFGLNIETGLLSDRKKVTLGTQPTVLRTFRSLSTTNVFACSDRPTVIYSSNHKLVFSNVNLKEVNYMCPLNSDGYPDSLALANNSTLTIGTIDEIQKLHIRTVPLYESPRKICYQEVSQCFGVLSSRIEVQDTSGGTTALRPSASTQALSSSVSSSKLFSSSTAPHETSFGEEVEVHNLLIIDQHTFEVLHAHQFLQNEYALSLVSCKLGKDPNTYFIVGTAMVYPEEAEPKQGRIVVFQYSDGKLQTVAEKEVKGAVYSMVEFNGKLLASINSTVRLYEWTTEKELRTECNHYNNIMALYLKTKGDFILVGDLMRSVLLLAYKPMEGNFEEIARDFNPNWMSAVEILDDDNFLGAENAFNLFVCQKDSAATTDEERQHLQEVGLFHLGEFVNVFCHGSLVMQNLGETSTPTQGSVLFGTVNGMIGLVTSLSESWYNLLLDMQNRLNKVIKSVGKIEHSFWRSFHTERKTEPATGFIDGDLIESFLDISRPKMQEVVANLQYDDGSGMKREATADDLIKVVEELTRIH
# PROTOCOL_SUMMARY: Aiolos degradation flow cytometry assay in human PBMCs (T cells)
# Type: cell-based
# ASSAY_SETUP: 24 hours, T cells (CD3+CD20-), read-out: Aiolos T Cell DC50
For each of the molecules below, state its DC50.

INPUT: Could you tell me which DC50 is on file for CN1CCN([C@@H]2CCCN(c3cnc(C(N)=O)c(Nc4ccc(N5CCN(CCCCc6cccc7c6CN(C6CCC(=O)NC6=O)C7=O)CC5)cc4)n3)C2)C1=O (stereo partly shown) [Compound 17] ?
OUTPUT: 10 to 1000 nM

INPUT: Could you tell me which DC50 is on file for CN1CCN([C@@H]2CCCN(c3cnc(C(N)=O)c(Nc4ccc(N5CC6(C5)CN(c5ccc7c(c5)C(=O)N(C5CCC(=O)NC5=O)C7=O)C6)cc4)n3)C2)C1=O (stereo partly shown) [Compound 34] ?
OUTPUT: 10 to 1000 nM

INPUT: Could you tell me which DC50 is on file for CN1CCN([C@@H]2CCCN(c3cnc(C(N)=O)c(Nc4ccc5c(c4)CCN(C4CN(c6ccc7c(c6)C(=O)N(C6CCC(=O)NC6=O)C7=O)C4)C5)n3)C2)C1=O (stereo partly shown) [Compound 30] ?
OUTPUT: < 10 nM

INPUT: Could you tell me which DC50 is on file for CN1CCN([C@H]2CCCN(c3cnc(C(N)=O)c(Nc4cnn(C5CCN(CC6CN(c7ccc8c(c7)C(=O)N(C7CCC(=O)NC7=O)C8=O)C6)CC5)c4)n3)C2)C1=O (stereo partly shown) [Compound 78] ?
OUTPUT: 10 to 1000 nM

INPUT: Could you tell me which DC50 is on file for NC(=O)c1ncc(N2CCCCC2)nc1Nc1ccc(N2CCC3(CCN(Cc4ccc5c(c4)C(=O)N(C4CCC(=O)NC4=O)C5=O)CC3)CC2)cc1 (stereo not shown) [Compound 123] ?
OUTPUT: > 1000 nM

INPUT: Could you tell me which DC50 is on file for CN1CCN([C@@H]2CCCN(c3cnc(C(N)=O)c(Nc4ccc(OCCCNc5ccc6c(c5)C(=O)N(C5CCC(=O)NC5=O)C6=O)cc4)n3)C2)C1=O (stereo partly shown) [Compound 64] ?
OUTPUT: 10 to 1000 nM

INPUT: Could you tell me which DC50 is on file for CN1CCN([C@@H]2CCCN(c3cnc(C(N)=O)c(Nc4ccc(C5(C)CCN(C(=O)CCOCCC(=O)Nc6cccc7c6CN(C6CCC(=O)NC6=O)C7=O)CC5)cc4)n3)C2)C1=O (stereo partly shown) [Compound 14] ?
OUTPUT: > 1000 nM
